Cited source for all entries: the Human Domainome abundance scans (Beltran et al. 2025)

B1: Zinc finger homeobox protein 4, residues 2562 to 2617; numbered along this chain, Q86UP3 (parent)
chain: RLRTTITPEQLEILYEKYLLDSNPTRKMLDHIAREVGLKKRVVQVWFQNTRARERK

- Variants of: B1
- protocol notes: abundance fitness (aPCA) (normalised: wild type 0, dead -1); higher = more abundant; growth selection in yeast, the domain comes from the species named
- run conditions: Homo sapiens

# sequence data, abundance fitness
records = [
    ("RLRTTITPEQLEILYEKYLLDSNPTRKMLDYIAREVGLKKRVVQVWFQNTRARERK [H31Y]", -0.201),
    ("RLRTTITPEQLEILYEKYLLDSNPTRKMLDHIAREVGLTKRVVQVWFQNTRARERK [K39T]", 0.284),
    ("RLRTTITPEQLEILYEKYLLDSNPTRKMLDHAAREVGLKKRVVQVWFQNTRARERK [I32A]", -0.786),
    ("RLRTTITPEQLEILYEKYLLDSNPTDKMLDHIAREVGLKKRVVQVWFQNTRARERK [R26D]", 0.285),
    ("RLRTTITPEQLEILYEKYLLDSNPTRKMLDHIAREPGLKKRVVQVWFQNTRARERK [V36P]", -0.649),
    ("RLRTTITPEQLEILYEKYLLDSNPTRKMLDHIAREVGLPKRVVQVWFQNTRARERK [K39P]", 0.196),
    ("RLRTTITPEQLEILYEKYLLDSNPGRKMLDHIAREVGLKKRVVQVWFQNTRARERK [T25G]", -0.331),
    ("RLRTTITPEQLEILYEKHLLDSNPTRKMLDHIAREVGLKKRVVQVWFQNTRARERK [Y18H]", -0.773),
    ("RLRTTITPEQLEILYEKYLGDSNPTRKMLDHIAREVGLKKRVVQVWFQNTRARERK [L20G]", -0.114),
    ("RLRTTITPEQLEILYEKYLLDSNPTRKMLDAIAREVGLKKRVVQVWFQNTRARERK [H31A]", 0.042),
    ("RLRTTITPEQLEILYEGYLLDSNPTRKMLDHIAREVGLKKRVVQVWFQNTRARERK [K17G]", -0.513),
    ("RLRTTITPEQLEILYEKYLLDSNPTRKTLDHIAREVGLKKRVVQVWFQNTRARERK [M28T]", -0.003),
    ("RLRTTITPEQLEILYEKYLLDSNPTRKMLDHIAREVGLQKRVVQVWFQNTRARERK [K39Q]", 0.032),
    ("RLRTTITPEQLEILYEKYLLDSNPTRKMLDHIWREVGLKKRVVQVWFQNTRARERK [A33W]", -0.696),
    ("RLRTTITPEQLEILYEKYLLESNPTRKMLDHIAREVGLKKRVVQVWFQNTRARERK [D21E]", 0.078),
    ("RLRTTITPEQLEILYEKYLLDVNPTRKMLDHIAREVGLKKRVVQVWFQNTRARERK [S22V]", -0.403),
    ("RLRTTITPEQLEILYEKYLPDSNPTRKMLDHIAREVGLKKRVVQVWFQNTRARERK [L20P]", -0.652),
    ("RLRTTITPEQLEILYEKYLLDSNPTRKMLDHISREVGLKKRVVQVWFQNTRARERK [A33S]", -0.158),
    ("RLRTTITPEQLEILYEKYLLDSNPTRKQLDHIAREVGLKKRVVQVWFQNTRARERK [M28Q]", -0.067),
    ("RLRTTITPEQLEILYEKYLLDINPTRKMLDHIAREVGLKKRVVQVWFQNTRARERK [S22I]", -0.436),
    ("RLRTTITPEQLEILYEKYLLDSNPTRKMLDHIAFEVGLKKRVVQVWFQNTRARERK [R34F]", -0.101),
    ("RLRTTITPEQLEILYEKYLLDSNDTRKMLDHIAREVGLKKRVVQVWFQNTRARERK [P24D]", -0.679),
]
